Test system: acetylcholine esterase (AChE), crude, from rice weevil
Construct: gene ace1; native, unpurified; supernatant of whole adult homogenate in phosphate buffer pH 7.4 (8775 g, 20 min)
MEASUREMENT_NOTES: Ellman colorimetric assay, […] nm
Assay type: biochemical, Sitophilus oryzae
ASSAY_CONDITIONS: crude enzyme; acetylthiocholine iodide 2.5 mM, pH 7.4, 35 °C, 15 min preincubation, compound in ethanol
Below, each of the compounds is paired with its reported AChE-IC50 (μL mL^-1) value.

{"columns": ["COMPOUND", "AChE-IC50 (μL mL^-1)"],
 "data": [
  ["CC1=CCC(C(C)(C)O)CC1 (stereo not drawn)", "18.39 ± 1.52 µL mL^−1"],
  ["CC1=CCC(C(C)C)=CC1", "> 500 µL mL^−1"],
  ["C=C1CCC2(C(C)C)CC12 (stereo not drawn)", "85.03 ± 0.20 µL mL^−1"],
  ["CC1=CC=C(C(C)C)CC1", "> 500 µL mL^−1"],
  ["CC1=CCC2CC1C2(C)C (stereo not drawn)", "1.81 ± 0.20 µL mL^−1"],
  ["C=C1CC/C=C(\\C)CC[C@@H]2[C@@H]1CC2(C)C", "> 500 µL mL^−1"]
]}
